- TEST TARGET: HRV2 2A proteinase (Human rhinovirus 2, UniProt P04936)
- Sequence (P04936 851-992 limits assumed): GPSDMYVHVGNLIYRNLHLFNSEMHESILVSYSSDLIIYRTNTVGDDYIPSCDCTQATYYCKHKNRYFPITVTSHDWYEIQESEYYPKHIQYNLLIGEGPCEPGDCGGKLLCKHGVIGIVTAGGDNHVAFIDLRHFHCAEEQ
- Assay type: biochemical
- CONDITIONS: inhibitor added before start of reaction; repeated three times
*1 amine or outer side, *2 acyl side, *3 side chain or, on linkers, in order; H or OH if unused. Where a SMILES comes first, the peptide text is derived from it. CO = O=C([*:1])[*:2]
ASSAY METRIC: effect on the activity of 2A relative to peptide P89

MOLECULE: N[C@@H](CS)C(=O)O
TEST TARGET: HRV2 2A proteinase (Human rhinovirus 2, UniProt P04936)
OBSERVED RESULT: no effect
//
MOLECULE: CC(C)C[C@H](NC(=O)N[C@H](C(=O)N[C@@H](CCC(N)=O)C(=O)N[C@@H](C)C=O)[C@@H]1CCNC(=N)N1)C(=O)O
TEST TARGET: HRV2 2A proteinase (Human rhinovirus 2, UniProt P04936)
OBSERVED RESULT: highly effective
//
MOLECULE: O=c1oc(Cl)c(Cl)c2ccccc12
TEST TARGET: HRV2 2A proteinase (Human rhinovirus 2, UniProt P04936)
OBSERVED RESULT: no activity
//
MOLECULE: NC(=O)CI [iodacetamide]
TEST TARGET: HRV2 2A proteinase (Human rhinovirus 2, UniProt P04936)
OBSERVED RESULT: strongly inhibit
//
MOLECULE: CCN1C(=O)C=CC1=O [N-ethylmaleimide]
TEST TARGET: HRV2 2A proteinase (Human rhinovirus 2, UniProt P04936)
OBSERVED RESULT: strongly inhibit
//
MOLECULE: N=C(N)c1ccc(CS(=O)(=O)F)cc1
TEST TARGET: HRV2 2A proteinase (Human rhinovirus 2, UniProt P04936)
OBSERVED RESULT: no activity
//
MOLECULE: CC(C)[C@H](NC(=O)[C@H](CCCNC(=N)N)NC(=O)N[C@@H](Cc1ccccc1)C(=O)O)C(=O)N[C@H](C=O)CCCNC(=N)N [antipain] ({Phe-CO}-Arg-Val-Arg-aldehyde)
TEST TARGET: HRV2 2A proteinase (Human rhinovirus 2, UniProt P04936)
OBSERVED RESULT: highly effective
//
MOLECULE: O[C@H](CS)[C@H](O)CS (racemic)
TEST TARGET: HRV2 2A proteinase (Human rhinovirus 2, UniProt P04936)
OBSERVED RESULT: no effect

The reported value for CC(C)CC(NC(=O)C1OC1C(=O)O)C(=O)NCCCCNC(=N)N (stereo not shown) in terms of effect on the activity of 2A relative to peptide P89 is no effect

====

- TEST TARGET: HRV2 2A proteinase (Human rhinovirus 2, UniProt P04936)
- Type: biochemical
- CONDITIONS: trans-cleavage assay, 34° C., up to 32 minutes
ASSAY METRIC: cleavability by HRV2 2A (in words)

SUBSTANCE: Ac-IITTAGPSDM-NH2 [P145, IITTAGPSDM]
TEST TARGET: HRV2 2A proteinase (Human rhinovirus 2, UniProt P04936)
OBSERVED RESULT: cannot be cleaved

SUBSTANCE: Ac-ITTAGPSD-NH2 [WTD8, ITTAGPSD]
TEST TARGET: HRV2 2A proteinase (Human rhinovirus 2, UniProt P04936)
OBSERVED RESULT: cannot be cleaved
